- STUDY_TARGET: human CD33 R254A (human, UniProt P20138 18-364)
- Sequence (P20138 18-364 R254A limits assumed): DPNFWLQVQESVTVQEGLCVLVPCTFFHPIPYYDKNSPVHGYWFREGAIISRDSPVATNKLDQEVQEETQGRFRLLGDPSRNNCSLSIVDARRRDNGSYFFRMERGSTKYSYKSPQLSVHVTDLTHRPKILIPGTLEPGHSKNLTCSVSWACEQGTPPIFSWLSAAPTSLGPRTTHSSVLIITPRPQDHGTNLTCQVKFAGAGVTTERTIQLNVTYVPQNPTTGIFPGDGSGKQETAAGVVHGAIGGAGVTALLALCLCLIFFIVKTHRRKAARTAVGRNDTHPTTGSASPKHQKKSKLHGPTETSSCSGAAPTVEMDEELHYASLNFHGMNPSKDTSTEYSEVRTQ
- PROCEDURE_DETAILS: alanine scan, flow cytometry, HEK293-T;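 further: antibody binding to each alanine-substituted CD33 mutant expressed transiently in HEK293-T, read as fluorescence minus background, mean of duplicates, relative to wild-type CD33 set as 100%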
ENDPOINT_NAME: Mean % WT Binding (% WT binding)
Reply with just the number (in % WT binding).

The recorded Mean % WT Binding for entry Refmab #4 (antibody, V domains shown, The alanine scan used IgG or Fab) VH: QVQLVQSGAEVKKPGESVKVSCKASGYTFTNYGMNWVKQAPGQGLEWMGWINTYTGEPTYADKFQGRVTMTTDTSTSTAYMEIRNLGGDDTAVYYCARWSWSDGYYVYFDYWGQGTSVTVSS VL: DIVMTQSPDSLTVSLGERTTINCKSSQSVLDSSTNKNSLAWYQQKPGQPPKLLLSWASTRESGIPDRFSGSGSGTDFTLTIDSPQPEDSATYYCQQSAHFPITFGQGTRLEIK equals 101

// data source = patent US20260242735A1
